Tested on: Vero cells
Test: Cytotoxicity assay on Vero cells (microscopic morphology)
Format: cell-based
Parameters: key: -: Safe concentration; + 1, +2, + 3, +4: about 25, 50, 75, 100% of cell sheet was affected respectively; + 1, +2, + 3, +4: about 25, 50, 75, 100% of cell sheet was affected respectively; + 1, +2, + 3, +4: about 25, 50, 75, 100% of cell sheet was affected respectively; + 1, +2, + 3, +4: about 25, 50, 75, 100% of cell sheet was affected respectively; M: masked (color of compounds made cells unseen)
Conditions: 100 µg/100µl, 24 h, morphological changes
Readout Label: Cytotoxicity on Vero cells (cell sheet affected)

Completed entries (count: 5):
Compound	Target Entity	Result
COc1ccc(OC)c(C=C2C(=O)c3ccccc3C2=O)c1	Vero cells	-
COc1ccc(OC)c(C=C2/C(=N/Nc3nc(C)c(/N=N/c4ccc(Cl)cc4)s3)c3ccccc3/C2=N\Nc2nc(C)c(/N=N/c3ccc(Cl)cc3)s2)c1	Vero cells	M
COc1ccc(OC)c(C=C2/C(=N/Nc3nc(C)cs3)c3ccccc3/C2=N\Nc2nc(C)cs2)c1 [11c]	Vero cells	M
COc1ccc(OC)c(C=C2/C(=N/Nc3nc(-c4ccccc4)cs3)c3ccccc3/C2=N\Nc2nc(-c3ccccc3)cs2)c1	Vero cells	-
COc1ccc(OC)c(C=C2C(=NNC(N)=S)c3ccccc3C2=NNC(N)=S)c1	Vero cells	-

Provide Cytotoxicity on Vero cells (cell sheet affected) for all items below, preserving their order.
1. COc1ccc(OC)c(C=C2/C(=N/Nc3nc(C)c(/N=N/c4ccc([N+](=O)[O-])cc4)s3)c3ccccc3/C2=N\Nc2nc(C)c(/N=N/c3ccc([N+](=O)[O-])cc3)s2)c1
2. COc1ccc(OC)c(C=C2/C(=N/Nc3nc(C)c(/N=N/c4ccccc4)s3)c3ccccc3/C2=N\Nc2nc(C)c(/N=N/c3ccccc3)s2)c1

Result block:
["-", "M"]
